Recorded values, source patent US20140066365A1.

Test system: SaR1: Meticillin-Resistant Staphylococcus aureus without Associated Resistance
Protocol: Antibiogram, MIC by the VITEK 2 system
Format: cell-based
Run Conditions: Staphylococcus aureus; SaR1; Table D1; read-out: MIC
Measured MIC values are reported for all entries that follow.

Below are worked cases with known answers.
[
  {
    "Compound": "CC1COc2c(N3CCN(C)CC3)c(F)cc3c(=O)c(C(=O)O)cn1c23 (stereo not shown) [Ofloxacin]",
    "Readout Value": "1 µg/mL"
  },
  {
    "Compound": "C[C@@H]1O[C@@H]1P(=O)(O)O [Fosfomycin]",
    "Readout Value": "≤ 8 µg/mL"
  }
]

Assign MIC to the following record: CN(C)c1ccc(O)c2c1C[C@H]1C[C@H]3[C@H](N(C)C)C(O)=C(C(N)=O)C(=O)[C@@]3(O)C(O)=C1C2=O [Minocycline]
≤ 0.5 µg/mL

Assign MIC to the following record: CCC[C@@H]1C[C@@H](C(=O)N[C@@H]([C@H]2O[C@H](SC)[C@H](O)[C@@H](O)[C@H]2O)[C@@H](C)O)N(C)C1 [Lincomycin]
≤ 1 µg/mL

Assign MIC to the following record: NC[C@H]1O[C@H](O[C@H]2[C@H](O)[C@@H](O[C@H]3O[C@H](CO)[C@@H](O)[C@H](N)[C@H]3O)[C@H](N)C[C@@H]2N)[C@H](O)[C@@H](O)[C@@H]1O [Kanamycin]
≤ 4 µg/mL

Assign MIC to the following record: Cc1onc(-c2ccccc2)c1C(=O)N[C@@H]1C(=O)N2[C@@H]1SC(C)(C)[C@@H]2C(=O)O [Oxacillin]
≥ 8 µg/mL

----------
Tested on: SaR3: Meticillin-Resistant Staphylococcus aureus
Protocol: Antibiogram by the disk diffusion technique
Type: cell-based
Run Conditions: Cd CA-SFM 2011
Assay Endpoint: CA-SFM Interpretation

Below are worked cases with known answers.
[
  {
    "Smiles Notation": "C[C@@H]1O[C@@H]1P(=O)(O)O",
    "Assayed System": "SaR3: Meticillin-Resistant Staphylococcus aureus",
    "CA-SFM Interpretation": "Susceptible"
  },
  {
    "Smiles Notation": "CC1(C)S[C@@H]2[C@H](NC(=O)Cc3ccccc3)C(=O)N2[C@H]1C(=O)O",
    "Assayed System": "SaR3: Meticillin-Resistant Staphylococcus aureus",
    "CA-SFM Interpretation": "Resistant"
  },
  {
    "Smiles Notation": "NC[C@H]1O[C@H](O[C@H]2[C@H](O)[C@@H](O[C@H]3O[C@H](CO)[C@@H](O)[C@H](N)[C@H]3O)[C@H](N)C[C@@H]2N)[C@H](N)C[C@@H]1O",
    "Assayed System": "SaR3: Meticillin-Resistant Staphylococcus aureus",
    "CA-SFM Interpretation": "Resistant"
  },
  {
    "Smiles Notation": "CC(=O)O[C@H]1C[C@@]2(C)[C@@H](C[C@@H](O)[C@H]3[C@@]4(C)CC[C@@H](O)[C@@H](C)[C@@H]4CC[C@@]32C)/C1=C(\\CCC=C(C)C)C(=O)O",
    "Assayed System": "SaR3: Meticillin-Resistant Staphylococcus aureus",
    "CA-SFM Interpretation": "Susceptible"
  }
]

Proceeding to the next compound to report its CA-SFM Interpretation.
Assign CA-SFM Interpretation to the following record: `CC(=O)NC[C@H]1CN(c2ccc(N3CCOCC3)c(F)c2)C(=O)O1`
Susceptible
